# study_system: HLA-DRB1*1301 (human)
# assay_method_text: competition binding
pIC50: −log10 of the molar value.

{"columns": ["binder", "pIC50"],
 "data": [
  ["TQFVRFDSDAASQRM [peptide p7 (residues 31-45 of HLA-A2)]", "< 4.00"]
]}
